Taken from patent US20200368361A1.

# system: T1, human MSR1 with a C-terminal Myc tag expressed on HEK293.Myc.hMSR1 cells (human, UniProt P21757 1-451)
# T1 sequence (looked up): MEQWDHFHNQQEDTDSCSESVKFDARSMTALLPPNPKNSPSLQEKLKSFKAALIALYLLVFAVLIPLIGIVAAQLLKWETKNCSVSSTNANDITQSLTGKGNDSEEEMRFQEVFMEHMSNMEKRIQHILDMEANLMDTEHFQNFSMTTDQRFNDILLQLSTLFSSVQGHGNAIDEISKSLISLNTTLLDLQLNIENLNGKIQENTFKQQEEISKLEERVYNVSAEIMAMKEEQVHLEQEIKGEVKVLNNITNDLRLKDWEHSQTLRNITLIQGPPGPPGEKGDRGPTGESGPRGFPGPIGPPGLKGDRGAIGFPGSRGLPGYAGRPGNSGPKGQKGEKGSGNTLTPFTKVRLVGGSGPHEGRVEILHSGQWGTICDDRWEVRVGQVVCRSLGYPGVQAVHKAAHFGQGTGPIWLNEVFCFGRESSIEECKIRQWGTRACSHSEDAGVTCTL
# procedure_details: cell-based or functional assay
Consider the following binders; for each one, report its IC50 of inhibition of Dil-Oxidized LDL uptake.
Respond numerically; units are nM and should not be typed.

Prompt: Identify IC50 of inhibition of Dil-Oxidized LDL uptake associated with the binder H1H21231N (antibody, V domains shown) VH: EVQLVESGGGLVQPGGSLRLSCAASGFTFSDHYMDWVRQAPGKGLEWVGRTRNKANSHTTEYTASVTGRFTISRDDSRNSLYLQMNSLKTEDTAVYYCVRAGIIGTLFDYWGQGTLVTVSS VL: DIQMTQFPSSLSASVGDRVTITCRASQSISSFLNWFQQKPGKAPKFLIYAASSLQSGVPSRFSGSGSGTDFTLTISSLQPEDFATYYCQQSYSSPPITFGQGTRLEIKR
Completion: 3.6

Prompt: Identify IC50 of inhibition of Dil-Oxidized LDL uptake associated with the binder H1H21227N-N297Q (antibody, V domains shown) VH: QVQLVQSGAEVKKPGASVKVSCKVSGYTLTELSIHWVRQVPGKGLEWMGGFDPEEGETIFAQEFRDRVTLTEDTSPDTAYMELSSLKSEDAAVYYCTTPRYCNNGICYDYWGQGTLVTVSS VL: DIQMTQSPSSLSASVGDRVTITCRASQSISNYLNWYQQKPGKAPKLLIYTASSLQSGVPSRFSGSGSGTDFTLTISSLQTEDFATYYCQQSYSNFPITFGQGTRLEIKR
Completion: 1.8
